Test system: UO-31 renal
Assay: NCI-60 one-dose screen, 48 h
Conditions: 10 µM unless noted
About 83,000 compounds went through this panel and 20% of them were active in at least one assay; those are over-represented in the sample as a whole. Calls of active or inactive are those of the source. The calls were made as follows: active = growth percent below 10; inactive = the rest.
Can you answer with just one of these options? Y for active, N for inactive

Below are worked cases with known answers.
O=C(O)c1ccc(-n2cc(/C=N/Nc3ccc(Cl)cc3)c(-c3ccc(F)c(F)c3)n2)cc1	N
CCCC(C)(C)COC(=O)c1cccc(N)c1	N

Asked: For C/C(=N\N=C1/SCC(=O)N1c1ccccc1)c1ccco1 , what call appears in the results of this test?
Given back: N

Asked: And for Cc1ccc2oc(=O)cc(C3C(C#N)=C(N)Oc4c3ccc3ccccc43)c2c1 (configuration not stated) ?
Given back: N

Asked: And for Nc1nc(Cl)cc(NCc2ccc(CNc3cc(Cl)nc(N)n3)cc2)n1 ?
Given back: N

Asked: And for N#CC(C#N)=C(C#N)c1c[nH]c2ccccc12 ?
Given back: N

Asked: And for FC(F)(F)c1cn(CCN2CCOCC2)c2ncnc(Cl)c12 ?
Given back: Y

Asked: And for Nc1ncnc2c1ccn2-c1cccc(NC(=O)c2cccc(C(F)(F)F)c2)c1 ?
Given back: N

Asked: And for CC(=O)Oc1ccc(C(OC(C)=O)OC(C)=O)cc1 ?
Given back: N

Asked: And for CCc1cccc(C)c1NC(=O)c1sc2nc3c(cc2c1N)CCCCC3 ?
Given back: N

Asked: And for COc1cc(/C=C\c2cc(/C=C\c3ccc(O)c(OC)c3)n(C(=O)CNc3ccccc3OC)n2)ccc1O ?
Given back: N

Asked: And for C=CCn1c(SCC(=O)Nc2ccc(/C(C)=N\O)cc2)nnc1-c1cc(-c2ccc(OC)cc2)nc2ccccc12 ?
Given back: N

Asked: And for COc1ccc(/C=C/C(=O)/C=C(/C=C/c2ccc(OC)c(OC)c2OC)OB(F)F)c(OC)c1OC ?
Given back: N

Asked: And for ClC1c2ccccc2CCc2ccccc21 ?
Given back: N

Asked: And for COc1ccc(OCC(O)CN2CCN(c3ccc(Cl)cc3)CC2)cc1 (configuration not stated) ?
Given back: N

Asked: And for Cc1ccc(NC(=O)CN2CCOCC2)cc1Cl ?
Given back: N

Asked: And for C[C@H]1C=C(C[C@@H](O)CC#CC#CCCCCC[C@@H](O)[C@H]2CCC(=O)O2)C(=O)O1 ?
Given back: N

Values from PubChem BioAssay (NCI)
